Test system: ACHN renal
protocol_description: NCI tumour cell line growth inhibition, 48 h; in the data active means GI50 below about 0.43 µM; inactive means the rest
Classes to choose from: yes (active), no (inactive)

Solved cases below.
| molecule | label_value |
| --- | --- |
| O=C1C2CC3C(CC2C(=O)[N]1[Sn]([c]1ccccc1)([c]1ccccc1)[c]1ccccc1)C1(Cl)C(Cl)=C(Cl)C3(Cl)C1(Cl)Cl (stereo not drawn) | yes |
| CS(=O)(=O)CCNCc1ccc(-c2ccc3ncnc(Nc4ccc(OCc5ccccc5)c(C(F)(F)F)c4)c3c2)o1 | no |

We now examine a further molecule.
Enquiry: Called result for O=c1ncc(-c2ccc(C(F)(F)F)cc2)c(NC2CCCCCC2)[nH]1
Return: no
